# System: Human immunodeficiency virus 1
# PROCEDURE DETAILS: Antiviral activity against Human immunodeficiency virus 1 LAI infected in human MT2 cells by MTT assay
Each record is given condition met if its reported IC50 is strictly below 7 nM. Records at or above 7 nM are given condition not met.

> print(dat)
                           structure.string        label.value
1  CC(C)CN(C[C@@H](O)[C@H](Cc1ccccc1)NC(=O)O[C@@H]1C[C@@H]2[C@H](O)CO[C@@H]2C1)S(=O)(=O)c1ccc(CO)cc1  condition not met

Report whether reported IC50 is lower than 7 nM (strictly) for `COc1ccc(S(=O)(=O)N(CC(C)C)C[C@@H](O)[C@H](Cc2ccccc2)NC(=O)O[C@@H]2C[C@@H]3[C@@H](O)CO[C@@H]3C2)cc1`
condition met

Reference source for all entries: ChEMBL document CHEMBL1817554
